Sourced from ChEMBL document CHEMBL5096160

- studyTarget: Tyrosine-protein phosphatase non-receptor type 11 (Homo sapiens)
- Sequence (Q06124 whole entry): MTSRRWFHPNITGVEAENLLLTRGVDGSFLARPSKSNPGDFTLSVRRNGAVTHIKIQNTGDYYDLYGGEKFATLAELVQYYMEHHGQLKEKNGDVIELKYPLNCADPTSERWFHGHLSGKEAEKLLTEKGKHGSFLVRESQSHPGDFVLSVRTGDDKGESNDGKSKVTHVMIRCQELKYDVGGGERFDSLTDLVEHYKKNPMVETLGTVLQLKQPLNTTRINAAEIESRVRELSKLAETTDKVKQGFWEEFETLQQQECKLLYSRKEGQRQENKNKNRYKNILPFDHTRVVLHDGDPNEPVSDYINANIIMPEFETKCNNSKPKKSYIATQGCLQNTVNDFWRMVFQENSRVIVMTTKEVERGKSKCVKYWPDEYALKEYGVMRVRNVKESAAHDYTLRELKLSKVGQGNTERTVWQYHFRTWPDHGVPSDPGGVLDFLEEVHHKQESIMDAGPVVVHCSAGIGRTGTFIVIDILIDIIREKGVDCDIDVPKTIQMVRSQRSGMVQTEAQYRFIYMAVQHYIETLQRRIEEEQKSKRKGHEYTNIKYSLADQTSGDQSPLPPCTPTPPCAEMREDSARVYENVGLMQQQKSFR
- procedureSummary: Inhibition of human recombinant SHP2 expressed in Escherichia coli using p-nitrophenyl phosphate as substrate preincubated for 2 mins followed by substrate addition by microplate spectrophotometer analysis
measuredProperty: pIC50
// field semantics: pIC50 = negative decimal log of concentration (mol/L)

// query Enter reported pIC50 observed with Tyrosine-protein phosphatase non-receptor type 11 (Homo sapiens) for CCOC(=O)c1sc(-c2ccc([N+](=O)[O-])cc2)nc1COc1ccc(Cl)cc1
// result 5.37

// query // repeat for CCOC(=O)c1sc(-c2ccc(OC)cc2)nc1COc1ccc(Cl)cc1 and report
// result 6.00

###

- studyTarget: Tyrosine-protein phosphatase non-receptor type 11 (Homo sapiens)
- procedureSummary: Inhibition of SHP2 (unknown origin) using EFpYAEVGRSPPDPAK incubated for 0.5 hrs by malachite green reagent based assay
measuredProperty: IC50
# include the unit after the value

// query Could you tell me which IC50 is on file for NCC1CCN(c2ncc(-c3cccc(Cl)c3Cl)cc2CO)CC1 ?
// result 1360 nM
